All figures here come from ChEMBL document CHEMBL3870342.

target: Pancreatic alpha-amylase (Sus scrofa) (UniProt P00690); assay: Inhibition of pig pancreas alpha-amylase using potato starch as substrate at 200 uM after 15 mins
Sequence (P00690 whole entry): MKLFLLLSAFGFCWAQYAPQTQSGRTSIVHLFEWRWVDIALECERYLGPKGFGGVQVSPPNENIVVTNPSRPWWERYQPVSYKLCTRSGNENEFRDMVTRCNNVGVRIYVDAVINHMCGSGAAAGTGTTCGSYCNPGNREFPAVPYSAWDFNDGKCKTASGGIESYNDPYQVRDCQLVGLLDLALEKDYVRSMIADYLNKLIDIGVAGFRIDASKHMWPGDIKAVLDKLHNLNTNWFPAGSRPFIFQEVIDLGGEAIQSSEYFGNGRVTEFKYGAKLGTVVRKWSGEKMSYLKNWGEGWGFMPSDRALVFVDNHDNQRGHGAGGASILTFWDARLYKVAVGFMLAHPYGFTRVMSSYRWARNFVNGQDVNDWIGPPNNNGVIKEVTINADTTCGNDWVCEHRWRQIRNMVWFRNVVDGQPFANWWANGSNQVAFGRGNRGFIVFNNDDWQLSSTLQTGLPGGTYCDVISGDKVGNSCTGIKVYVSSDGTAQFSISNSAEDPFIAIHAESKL
Property label: inhibition
Express your answer as a number followed by its unit.

Any idea what inhibition was measured for "CC1(C)CC[C@]2(C(=O)O)CC[C@]3(C)C(=CC[C@@H]4[C@@]5(C)C[C@@H](O)[C@H](O)[C@@](C)(COC(=O)[C@H](CC(=O)O)C[C@H]6c7c(cc(O)c(O)c7O)C(=O)O[C@@H]6C(=O)O)[C@@H]5CC[C@]43C)[C@@H]2[C@@H]1O" ?
3.3%

====

organism: Rattus norvegicus; assay: Inhibition of rat intestinal alpha-glucosidase using PNPG as substrate at 200 uM after 30 mins
Property label: inhibition
Express your answer as a number followed by its unit.

>  <Compound>
CC1(C)CC[C@]2(C(=O)O[C@@H]3O[C@H](CO)[C@@H](O)[C@H](O)[C@H]3O)CC[C@]3(C)C(=CC[C@@H]4[C@@]5(C)C[C@@H](O)[C@H](O)[C@@](C)(COC(=O)[C@@H](CC(=O)O)C[C@H]6c7c(cc(O)c(O)c7O)C(=O)O[C@@H]6C(=O)O)[C@@H]5CC[C@]43C)[C@@H]2[C@@H]1O

>  <Result value>
6.7%

$$$$

Any idea what inhibition was measured for "CC1(C)CC[C@]2(C(=O)O)CC[C@]3(C)C(=CC[C@@H]4[C@@]5(C)C[C@@H](O)[C@H](O)[C@@](C)(CO)[C@@H]5CC[C@]43C)[C@@H]2C1" ?
4.7%

Any idea what inhibition was measured for "CC1(C)CC[C@]2(C(=O)O[C@@H]3O[C@H](CO)[C@@H](O)[C@H](O)[C@H]3O)CC[C@]3(C)C(=CC[C@@H]4[C@@]5(C)C[C@@H](O)[C@H](O)C(C)(C)[C@@H]5CC[C@]43C)[C@@H]2[C@@H]1O" ?
7.8%

Any idea what inhibition was measured for "CC1(C)CC[C@]2(C(=O)O[C@@H]3O[C@H](CO)[C@@H](O)[C@H](O)[C@H]3O)CC[C@]3(C)C(=CC[C@@H]4[C@@]5(C)CC[C@H](O)[C@@](C)(CO)[C@@H]5CC[C@]43C)[C@@H]2[C@@H]1O" ?
9.7%

Any idea what inhibition was measured for "CC1(C)CC[C@]2(C(=O)O)CC[C@]3(C)C(=CC[C@@H]4[C@@]5(C)C[C@@H](O)[C@H](O)[C@@](C)(CO)[C@@H]5CC[C@]43C)[C@@H]2[C@@H]1O" ?
2.8%

Any idea what inhibition was measured for C[C@H]1O[C@H](O[C@H]2[C@H](O)[C@@H](O)[C@@H](O[C@H]3[C@H](O)[C@@H](O)C(O)O[C@@H]3CO)O[C@@H]2CO)[C@H](O)[C@@H](O)[C@@H]1N[C@H]1C=C(CO)[C@@H](O)[C@H](O)[C@H]1O (stereo partly specified) ?
69.3%

====

target: Pancreatic alpha-amylase (Sus scrofa); test: Inhibition of pig pancreas alpha-amylase using potato starch as substrate at 200 uM after 15 mins
Property label: inhibition (%)
Write the answer as a number in %, unit excluded.

>  <Smiles>
CC1(C)CC[C@]2(C(=O)O)CC[C@]3(C)C(=CC[C@@H]4[C@@]5(C)C[C@@H](O)[C@H](O)[C@@](C)(CO)[C@@H]5[C@H](O)C[C@]43C)[C@@H]2C1

>  <inhibition, %>
7.5

$$$$
>  <Smiles>
CC1=C2C3=CC[C@@H]4[C@@]5(C)C[C@@H](O)[C@H](O)[C@@](C)(CO)[C@@H]5CC[C@@]4(C)[C@]3(C)CC[C@@]2(C(=O)O[C@@H]2O[C@H](CO)[C@@H](O)[C@H](O)[C@H]2O)CC[C@H]1C

>  <inhibition, %>
2.4

$$$$
>  <Smiles>
CC1(C)CC[C@]2(C(=O)O)CC[C@]3(C)C(=CC[C@@H]4[C@@]5(C)C[C@@H](O)[C@H](O)[C@@](C)(CO)[C@@H]5CC[C@]43C)[C@@H]2[C@@H]1O

>  <inhibition, %>
1.7

$$$$

Now for a further molecule.
Form field: inhibition recorded for "CC1(C)CC[C@]2(C(=O)O[C@@H]3O[C@H](CO)[C@@H](O)[C@H](O)[C@H]3O)CC[C@]3(C)C(=CC[C@@H]4[C@@]5(C)CC[C@H](O)[C@@](C)(CO)[C@@H]5CC[C@]43C)[C@@H]2[C@@H]1O" with Pancreatic alpha-amylase (Sus scrofa) (enter value)
5.6
